Multiple publications report IC50 for UniProt:P17931; what follows is a combined list.
Rule: IC50 below 300 nM gives 1 (yes), anything at or above gives 0 (no).

>>> group("CO[C@@H]1[C@@H](n2cc(-c3ccc(Cl)c(F)c3F)nn2)[C@@H](O)[C@@H](CO)O[C@@H]1Cc1cc(C2CCOCC2)on1")
"1 (yes)"
>>> group("CO[C@@H]1[C@@H](n2cc(-c3cc(F)c(F)c(F)c3)nn2)[C@@H](O)[C@@H](CO)O[C@@H]1CC1CC(c2ccncc2)=NO1 (stereo partly drawn)")
"0 (no)"
>>> group("CO[C@@H]1[C@@H](n2cc(-c3cc(F)c(F)c(F)c3)nn2)[C@@H](O)[C@@H](CO)O[C@@H]1C[C@H]1CC(C2CCCCC2)=NO1")
"0 (no)"
>>> group("CO[C@@H]1[C@@H](n2cc(-c3ccc(Cl)c(F)c3F)nn2)[C@@H](O)[C@@H](CO)O[C@@H]1CC1CC(C2CCN(C(=O)OC(C)(C)C)CC2)=NO1 (stereo partly drawn)")
"1 (yes)"
>>> group("[2H]C([2H])([2H])OC1C(n2cc(-c3cc(F)c(F)c(F)c3)nn2)[C@@H](O)C(CO)O[C@H]1[C@H](OCc1ccc(Br)cc1)C(=O)NC1CNC1 (stereo partly drawn)")
"1 (yes)"
>>> group("CO[C@@H]1[C@@H](n2cc(-c3cc(F)c(F)c(F)c3)nn2)[C@@H](O)[C@@H](CO)O[C@H]1C(=O)N(c1cccc(Br)c1)[C@H]1CC[C@@H]1O")
"1 (yes)"
>>> group("CO[C@@H]1[C@@H](n2cc(-c3ccc(C)c(F)c3F)nn2)[C@@H](O)[C@@H](CO)O[C@@H]1Cc1cc(C2(Oc3cncc(Br)c3)COC2)on1")
"0 (no)"
>>> group("CCc1cc(C[C@H]2O[C@H](CO)[C@H](O)[C@H](n3cc(-c4cc(F)c(F)c(F)c4)nn3)[C@H]2OC)on1")
"0 (no)"
>>> group("CO[C@@H]1[C@@H](n2cc(-c3cc(F)c(F)c(F)c3)nn2)[C@@H](O)[C@@H](CO)O[C@@H]1Cn1cc(C2CCN(C(C)=O)CC2)nn1")
"1 (yes)"
>>> group("CO[C@@H]1[C@@H](n2cc(-c3cc(F)c(F)c(F)c3)nn2)[C@@H](O)[C@@H](CO)O[C@H]1C(=O)N(c1cc(Br)ccc1C)[C@H]1CCCC[C@@H]1O")
"1 (yes)"
>>> group("CCC1(c2cc(C[C@H]3O[C@H](CO)[C@H](O)[C@H](n4cc(-c5cc(F)c(F)c(F)c5)nn4)[C@H]3OC)on2)COC1")
"1 (yes)"
>>> group("CC(=O)N1CCC(C2=NOC(C[C@H]3O[C@H](CO)[C@H](O)[C@H](n4cc(-c5cc(F)c(F)c(F)c5)nn4)[C@H]3O)C2)CC1 (mixture of isomers)")
"1 (yes)"

====

Multiple publications report log10(IC50) for Galectin-3 (Homo sapiens); what follows is a combined list.
Measured endpoint: log10(IC50) (log10 of the value in nM)

>>> observed_measurement("OC[C@H]1O[C@H](CC2CC(C3CCNCC3)=NO2)[C@H](O)[C@@H](n2cc(-c3cc(F)c(F)c(F)c3)nn2)[C@H]1O (mixture of isomers)")
2.48
>>> observed_measurement("CO[C@@H]1[C@@H](n2cc(-c3ccc(Cl)c(F)c3F)nn2)[C@@H](O)[C@@H](CO)O[C@@H]1Cc1cc(C2CCN(S(C)(=O)=O)CC2)on1")
1.52
>>> observed_measurement("CO[C@@H]1[C@@H](n2cc(-c3ccc(F)c(F)c3F)nn2)[C@@H](O)[C@@H](CO)O[C@@H]1Cc1cc(C2CCN(C(C)=O)CC2)on1")
1.41
>>> observed_measurement("O=C([C@@H]1O[C@H](CO)[C@H](O)[C@H](n2cc(-c3cc(F)c(F)c(F)c3)nn2)[C@H]1O)N(Cc1ccc(Cl)cc1)[C@H]1CCCC[C@@H]1O")
2.24
>>> observed_measurement("CO[C@@H]1[C@@H](n2cc(-c3ccc(C)c(F)c3F)nn2)[C@@H](O)[C@@H](CO)O[C@@H]1Cc1cc(C2CCC2)on1")
1.85
>>> observed_measurement("COc1ccc(C2=NOC(C[C@H]3O[C@H](CO)[C@H](O)[C@H](n4cc(-c5cc(F)c(F)c(F)c5)nn4)[C@H]3OC)C2)cc1 (stereo partly drawn)")
3.19
>>> observed_measurement("CO[C@@H]1[C@@H](n2cc(-c3ccc(Cl)c(F)c3F)nn2)[C@@H](O)[C@@H](CO)O[C@@H]1CC1=NO[C@]2(CC[C@H](C(C)(C)O)CC2)C1")
2.69
>>> observed_measurement("CO[C@@H]1[C@@H](n2cc(-c3cc(F)c(F)c(F)c3)nn2)[C@@H](O)[C@@H](CO)O[C@@H]1Cc1cc(C2CCN(S(C)(=O)=O)CC2)on1")
1.57
>>> observed_measurement("CC(=O)O[C@@H]1[C@@H](n2cc(-c3cccc(F)c3)nn2)[C@@H](O)[C@@H](CO)O[C@H]1C(=O)N(Cc1ccnn1C)[C@H]1CCCC[C@@H]1O")
2.28
>>> observed_measurement("CCCC(=O)N1CCC(c2cc(C[C@H]3O[C@H](CO)[C@H](O)[C@H](n4cc(-c5cc(F)c(F)c(F)c5)nn4)[C@H]3OC)no2)CC1")
1.68
>>> observed_measurement("CO[C@@H]1[C@@H](n2cc(-c3ccc(C)c(F)c3F)nn2)[C@@H](O)[C@@H](CO)O[C@@H]1Cc1cc([C@@H]2C[C@H]2O)on1")
2.43
>>> observed_measurement("CO[C@@H]1[C@@H](n2cc(-c3ccc(F)c(F)c3F)nn2)[C@@H](O)[C@@H](CO)O[C@@H]1Cc1cc(C2CCN(S(C)(=O)=O)CC2)on1")
1.48

====

Multiple publications report IC50 for UniProtKB P17931; what follows is a combined list.
Rule: IC50 below 200 nM gives Met, anything at or above gives Not met.

>>> group("COC1C(n2cc(-c3cc(F)c(F)c(F)c3)nn2)[C@@H](O)C(CO)O[C@H]1[C@H](OCc1ccc(Cl)cc1)C(=O)Nc1ccccc1F (some centres unmarked)")
"Not met"
>>> group("CO[C@@H]1[C@@H](n2cc(-c3ccc(C)c(F)c3F)nn2)[C@@H](O)[C@@H](CO)O[C@H]1C(=O)N(c1cc(Cl)cc(Cl)c1)[C@H]1CCC[C@@H]1O")
"Met"
>>> group("CO[C@@H]1[C@@H](n2cc(-c3ccc(C)c(F)c3)nn2)[C@@H](O)[C@@H](CO)O[C@@H]1CC1=NOC2(CCCCC2)C1")
"Met"
>>> group("COc1cc(C#N)cc(N(C(=O)[C@@H]2O[C@H](CO)[C@H](O)[C@H](n3cc(-c4cc(F)cc(Br)c4)nn3)[C@H]2OC)[C@H]2CCCC[C@@H]2O)c1")
"Met"
>>> group("CO[C@@H]1[C@@H](n2cc(-c3ccc(Cl)c(Cl)c3)nn2)[C@@H](O)[C@@H](CO)O[C@H]1C(=O)N(c1cc(Br)cc(C#N)c1)[C@H]1CCC[C@@H]1O")
"Met"
>>> group("CO[C@@H]1[C@@H](n2cc(-c3cc(F)c(F)c(F)c3)nn2)[C@@H](O)[C@@H](CO)O[C@@H]1CC1CN(C2CCN(C(=O)C(C)C)CC2)C(=O)O1 (mixture of isomers)")
"Met"
>>> group("CC(=O)O[C@@H]1[C@@H](n2cc(-c3cc(F)cc(F)c3)nn2)[C@@H](O)[C@@H](CO)O[C@H]1C(=O)N(Cc1ccnn1C)[C@H]1CCCC[C@@H]1O")
"Met"
>>> group("CO[C@@H]1[C@@H](n2cc(-c3cccc(F)c3C)nn2)[C@@H](O)[C@@H](CO)O[C@H]1C(=O)N(c1cc(Cl)cc(C#N)c1)[C@H]1CCCC[C@@H]1O")
"Met"
>>> group("CNC(=O)[C@@H](OCc1ccc(F)c(Cl)c1)[C@@H]1OC(CO)[C@H](O)C(n2cc(-c3cc(F)c(F)c(F)c3)nn2)C1O (some centres unmarked)")
"Not met"
>>> group("CC(=O)N1CCC([C@@H]2CC(C[C@H]3O[C@H](CO)[C@H](O)[C@H](n4cc(-c5cc(F)c(F)c(F)c5)nn4)[C@H]3O)=NO2)CC1")
"Not met"

====

pIC50: −log10 of the molar value.
Multiple publications report pIC50 for Galectin-3 (Homo sapiens, UniProt P17931); what follows is a combined list.
Measured endpoint: pIC50

>>> observed_measurement("CO[C@@H]1[C@@H](n2cc(-c3cc(F)c(F)c(Cl)c3)nn2)[C@@H](O)[C@@H](CO)O[C@H]1C(=O)N(c1cc(Br)cc(C#N)c1)[C@@H]1CC[C@H]1O")
6.63
>>> observed_measurement("CC1(c2cc(C[C@H]3O[C@H](CO)[C@H](O)[C@H](n4cc(-c5ccc(F)c(F)c5F)nn4)[C@H]3OCC(=O)O)on2)CC1")
7.40
>>> observed_measurement("CO[C@@H]1[C@@H](n2cc(-c3cc(F)c(F)c(F)c3)nn2)[C@@H](O)[C@@H](CO)O[C@H]1C(=O)N(c1ccc(Cl)cc1)[C@H]1CCCC[C@@H]1O")
6.80
>>> observed_measurement("Cc1ccc(-c2cn([C@H]3[C@@H](O)[C@@H](CO)O[C@H](Cc4cc(C5(C)CC5)no4)[C@@H]3O)nn2)c(F)c1F")
8.00
>>> observed_measurement("CO[C@@H]1[C@@H](n2cc(-c3cc(F)c(F)c(F)c3)nn2)[C@@H](O)[C@@H](CO)O[C@@H]1CC1=NOC2(CCC(C)(C)CC2)C1")
6.36
>>> observed_measurement("CO[C@@H]1[C@@H](n2cc(-c3cc(F)c(F)c(F)c3)nn2)[C@@H](O)[C@@H](CO)O[C@@H]1Cc1cc(C2(O)CCC(C)(C)CC2)on1")
5.87
>>> observed_measurement("OC[C@H]1O[C@H](Cc2cc(C3CCCCC3)on2)[C@H](O)[C@@H](n2cc(-c3cc(F)c(F)c(F)c3)nn2)[C@H]1O")
6.47
>>> observed_measurement("CO[C@@H]1[C@@H](n2cc(-c3cccc(F)c3)nn2)[C@@H](O)[C@@H](CO)O[C@H]1C(=O)N(c1cc(Br)cc(C#N)c1)[C@@H]1CCC[C@H]1O")
6.21
>>> observed_measurement("CO[C@@H]1[C@@H](n2cc(-c3cc(F)c(F)c(F)c3)nn2)[C@@H](O)[C@@H](CO)O[C@@H]1Cc1cc(C2CCN(CCC(C)(C)C)CC2)on1")
6.85
>>> observed_measurement("CO[C@@H]1[C@@H](n2cc(-c3cc(F)c(Br)c(F)c3)nn2)[C@@H](O)[C@@H](CO)O[C@H]1C(=O)N(c1cc(Cl)cc(C#N)c1)[C@H]1CCCC[C@@H]1O")
7.64
>>> observed_measurement("CCO[C@@H]1[C@@H](n2cc(-c3cc(F)c(F)c(F)c3)nn2)[C@@H](O)[C@@H](CO)O[C@@H]1CC1=NOC2(CCCCC2)C1")
6.52
>>> observed_measurement("Cc1ccc(-c2cn([C@H]3[C@@H](O)[C@@H](CO)O[C@H](CC4=NOC5(CCOCC5)C4)[C@@H]3OCC(=O)O)nn2)c(F)c1F")
7.10
